Hey, just so you know, these numbers are from patent US5696112A.

Target: oxytocin receptors (Rattus norvegicus, UniProt P70536)
Construct: The uteri are dissected out, cleaned of fat and connective tissues; from tissue; host or cells: uterus membranes of DES-treated female Sprague-Dawley rats
Sequence (P70536 whole entry): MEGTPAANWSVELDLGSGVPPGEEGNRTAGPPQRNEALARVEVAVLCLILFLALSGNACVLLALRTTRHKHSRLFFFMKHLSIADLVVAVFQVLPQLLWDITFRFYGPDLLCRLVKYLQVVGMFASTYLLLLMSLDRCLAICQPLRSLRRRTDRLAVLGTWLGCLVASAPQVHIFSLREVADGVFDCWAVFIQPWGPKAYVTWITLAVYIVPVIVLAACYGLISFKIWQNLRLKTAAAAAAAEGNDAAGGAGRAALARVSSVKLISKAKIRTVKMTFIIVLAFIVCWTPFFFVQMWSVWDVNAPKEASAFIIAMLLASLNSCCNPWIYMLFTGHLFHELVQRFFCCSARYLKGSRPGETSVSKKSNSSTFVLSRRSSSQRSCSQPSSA
Assay: Oxytocin Receptor Binding
Design: species or system Sprague-Dawley rats
Conditions: 10 μM
readout_name: inhibition at 10 µM (%)

Some solved cases for reference:
smiles_text	measured_target	endpoint_value
CCCCOc1ccc(C(=O)N2CCCCc3sccc32)cc1	oxytocin receptors (Rattus norvegicus, UniProt P70536)	93
Cc1c(F)cccc1C(=O)Nc1ccc(C(=O)N2CCCCc3sc(Cl)cc32)cc1	oxytocin receptors (Rattus norvegicus, UniProt P70536)	97
Cc1ccc(F)cc1C(=O)Nc1ccc(C(=O)N2CCCCc3sccc32)cn1	oxytocin receptors (Rattus norvegicus, UniProt P70536)	96
O=C(Nc1ccc(C(=O)N2CCCCc3sccc32)c(Cl)c1)c1ccc(F)cc1Cl	oxytocin receptors (Rattus norvegicus, UniProt P70536)	86
Cc1ccc(F)cc1C(=O)Nc1ccc(C(=O)N2CCC=Cc3sccc32)c(Cl)c1	oxytocin receptors (Rattus norvegicus, UniProt P70536)	76
Cc1ccc(F)cc1C(=O)Nc1ccc(C(=O)N2CCCCc3sccc32)c(Cl)c1	oxytocin receptors (Rattus norvegicus, UniProt P70536)	97
O=C(Nc1ccc(C(=O)N2CCCCc3sc(Cl)cc32)cc1)c1ccc(Cl)cc1Cl	oxytocin receptors (Rattus norvegicus, UniProt P70536)	83

I = Cc1ccccc1CC(=O)Nc1ccc(C(=O)N2CCCCc3sccc32)cc1
II = O=C(Nc1ccc(C(=O)N2CCCCc3sccc32)c(Cl)c1)c1ccc(Cl)cc1Cl
III = O=C(Nc1ccc(C(=O)N2CCCC(=O)c3sccc32)cc1)c1ccc(Cl)cc1Cl
Write the entries in order, lowest recorded inhibition at 10 µM first. Give the labels in the order requested. III, II, I
